I'd be grateful if you could share measured viability, T/C for these entries.
System: 616215-338-R-J1-PDC complex spheroid viability
Experiment: Anticancer human tumor 616215-338-R-J1-PDC patient-derived colon adenocarcinoma cell line growth inhibition [POLQ]
Conditions: second compound 10 µM; first compound 0.1 µM; stronger effect = lower value
Numbers only, in %.

Reference set, count: 2
COc1cccc2c1C(=O)c1c(O)c3c(c(O)c1C2=O)CC(O)(C(=O)CO)CC3OC1CC(N)C(O)C(C)O1 (centres undefined) + Nc1ccc(C#CCN(C(=O)Cc2ncc(C(F)(F)F)cc2C(F)(F)F)c2ccc(F)cc2)nn1 | 38.1
COc1ccc([C@@H](O)c2cc(-c3ncnc4cc(N5CCOCC5)ccc34)c(F)cc2Cl)nn1 + COC1C(OC(N)=O)C(O)C(Oc2ccc3c(O)c(NC(=O)c4ccc(O)c(CC=C(C)C)c4)c(=O)oc3c2C)OC1(C)C | 94.2

Quick request: viability, T/C for each listed item, please.
1. O=c1[nH]cc(F)c(=O)[nH]1 + Nc1ccc(C#CCN(C(=O)Cc2ncc(C(F)(F)F)cc2C(F)(F)F)c2ccc(F)cc2)nn1
2. O=C(c1cc(Cc2n[nH]c(=O)c3ccccc23)ccc1F)N1CCN(C(=O)C2CC2)CC1 + Nc1ccc(C#CCN(C(=O)Cc2ncc(C(F)(F)F)cc2C(F)(F)F)c2ccc(F)cc2)nn1

1: 75.7; 2: 88.7

----------
Tested on: 616215-338-R-J1-PDC complex spheroid viability
Test: Anticancer human tumor 616215-338-R-J1-PDC cell line growth inhibition [POLQ];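 further: spheroids exposed to compounds for one week before readout; percent viability relative to DMSO vehicle wells taken as 100%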
Details: second compound 0.0316 µM; first compound 0.316 µM; stronger effect = lower value
Endpoint: viability, T/C

Reference set, count: 6
CCc1c2c(nc3ccc(O)cc13)-c1cc3c(c(=O)n1C2)COC(=O)[C@]3(O)CC + Cc1cccc(N(C)C(=O)C2C(O)CCN2c2nc(C)cc(C(F)(F)F)c2C#N)c1 | 24.6%
COc1ccc([C@@H](O)c2cc(-c3ncnc4cc(N5CCOCC5)ccc34)c(F)cc2Cl)nn1 + Nc1ccc(C#CCN(C(=O)Cc2ncc(C(F)(F)F)cc2C(F)(F)F)c2ccc(F)cc2)nn1 | 96%
CC1COCCN1c1cc(-c2ccnn2C)c2ccnc(-c3ccn[nH]3)c2n1 (stereo not given) + Cc1cccc(N(C)C(=O)C2C(O)CCN2c2nc(C)cc(C(F)(F)F)c2C#N)c1 | 76.7%
CNCc1ccc(-c2[nH]c3cc(F)cc4c3c2CCNC4=O)cc1 + Nc1ccc(C#CCN(C(=O)Cc2ncc(C(F)(F)F)cc2C(F)(F)F)c2ccc(F)cc2)nn1 | 97%
COc1cccc(OCCCN)c1-c1cc(Nc2cnc(C#N)cn2)n[nH]1 + Cc1cccc(N(C)C(=O)C2C(O)CCN2c2nc(C)cc(C(F)(F)F)c2C#N)c1 | 38.9%
COc1cc2cc(C(=O)CCC(=O)O)sc2cc1OC + COC1C(OC(N)=O)C(O)C(Oc2ccc3c(O)c(NC(=O)c4ccc(O)c(CC=C(C)C)c4)c(=O)oc3c2C)OC1(C)C | 102%

Quick request: viability, T/C for each listed item, please.
1. COc1cc(C2c3cc4c(cc3C(OC3OC5COC(C)OC5C(O)C3O)C3COC(=O)C23)OCO4)cc(OC)c1O (stereo not given) + Nc1ccc(C#CCN(C(=O)Cc2ncc(C(F)(F)F)cc2C(F)(F)F)c2ccc(F)cc2)nn1
2. COc1ccc([C@@H](O)c2cc(-c3ncnc4cc(N5CCOCC5)ccc34)c(F)cc2Cl)nn1 + COC1C(OC(N)=O)C(O)C(Oc2ccc3c(O)c(NC(=O)c4ccc(O)c(CC=C(C)C)c4)c(=O)oc3c2C)OC1(C)C
3. CC1COCCN1c1cc(C2(O)CC3CCC(C2)O3)c2cnn(-c3ccn[nH]3)c2n1 (stereo not given) + COC1C(OC(N)=O)C(O)C(Oc2ccc3c(O)c(NC(=O)c4ccc(O)c(CC=C(C)C)c4)c(=O)oc3c2C)OC1(C)C
4. COc1cccc2c1C(=O)c1c(O)c3c(c(O)c1C2=O)CC(O)(C(=O)CO)CC3OC1CC(N)C(O)C(C)O1 (stereo not given) + COC1C(OC(N)=O)C(O)C(Oc2ccc3c(O)c(NC(=O)c4ccc(O)c(CC=C(C)C)c4)c(=O)oc3c2C)OC1(C)C

1. 46.2%
2. 110%
3. 71%
4. 79.2%
